GI50 reference
# Tested on: A498
# assay.details: NCI tumour cell line growth inhibition, 48 h
Active and inactive are the calls of the source. No stated cut-off is given here; in the data, active = GI50 up to about 1.1 µM and inactive = higher. Square brackets hold non-standard residues; d marks the D form. Peptide text beside a SMILES is read from it. ξ: configuration not given here. ξ2Thi = NC(Cc1cccs1)C(=O)O; ξR = N=C(N)NCCCC(N)C(=O)O; ξI = CCC(C)C(N)C(=O)O; ξL = CC(C)CC(N)C(=O)O; ξK = NCCCCC(N)C(=O)O; ξT = CC(O)C(N)C(=O)O; ξA = CC(N)C(=O)O
test.readout: GI50

COC(=O)C1=C(C[S+]([O-])c2ccc([N+](=O)[O-])cc2[N+](=O)[O-])ON(C)C1c1ccccc1 (centres undefined) = > 61.8 µM (inactive)
C[C@H](C1CC(C)(O)C(C)(O)C(O)O1)[C@H]1CC[C@H]2[C@@H]3[C@@H]4O[C@@H]4[C@@]4(O)CC=CC(=O)[C@]4(C)[C@H]3CC[C@]12C (some centres undefined) = 22.4 µM (inactive)
CC(c1ccccc1)/[N+]([O-])=C/c1ccccc1 (centres undefined) = > 100 µM (inactive)
C#CCNC(=O)N(CC#C)N=O = > 100 µM (inactive)
NCCCNCc1c2ccccc2c(CNCCCN)c2ccccc12 = 23.1 µM (inactive)
Cn1c(N=[N+]=[N-])cc(=O)n(C)c1=O = > 100 µM (inactive)
CC(=O)OCCCOCn1c(Cc2ccccc2)c(C)c(=O)[nH]c1=O = > 100 µM (inactive)
CCOC(=O)c1nnsc1NC(=O)NN = > 100 µM (inactive)
CN(C)C(=O)c1ccc([N+](=O)[O-])cc1 = > 100 µM (inactive)
O=C(Nc1c(O)[nH]c(=S)[nH]c1=O)c1ccco1 = > 100 µM (inactive)
N#Cc1c(-c2ccccc2)[nH]c2ccccc2c1=O = > 100 µM (inactive)
OC(c1cccnc1Cl)c1nc2ccccc2c2ccnc(Cl)c12 (centres undefined) = 3.23 µM (inactive)
CN(C)c1ccc(/C=C/c2ccnc3ccccc23)cc1N = 10.4 µM (inactive)
CC(=O)OC(COc1ccc2c(c1)[n+]([O-])nc(N)[n+]2[O-])CN1CCCCC1 (centres undefined) = 4.36 µM (inactive)
O=C(OCc1ccccc1C1CSCSC1)c1cc(C(=O)OCc2ccccc2C2CSCSC2)c(C(=O)OCc2ccccc2C2CSCSC2)cc1C(=O)OCc1ccccc1C1CSCSC1 = > 100 µM (inactive)
COc1cc(Br)c(/C=N\c2cccc3ccc(OS(=O)(=O)c4ccc([N+](=O)[O-])cc4)cc23)cc1OC = > 100 µM (inactive)
CCC(C)C(NC(=O)C(Cc1cccs1)NC(=O)C(CC(C)C)NC(=O)C(CC(C)C)NC(=O)C(CCCCN)NC(=O)C(CCCN=C(N)N)NC(=O)[C@H](Cc1ccc(O)cc1)NC(=O)C(NC(=O)C(C)NC(=O)C(N)CC(C)C)C(C)O)C(=O)NC(CC(C)C)C(N)=O (some centres undefined) (H-[ξL][ξA][ξT]Y[ξR][ξK][ξL][ξL][ξ2Thi][ξI][ξL]-NH2) = > 50 µM (inactive)
CN1C(=O)CN(NC(=O)C2=C(O)c3ccc(Br)cc3S(=O)(=O)N2)C1=S = > 100 µM (inactive)
CC(C)Oc1c(N(Cc2ccccc2)c2ccccc2C2SCCCS2)c(=O)c1=O = 6.9 µM (inactive)

###

# Test system: HT-29
# assay.details: NCI tumour cell line growth inhibition, 48 h
Activity calls are given as the source filed them. Rule as the data show it: active = GI50 up to about 1.1 µM and inactive = higher.
Labels: t for active, f for inactive

NC(Cc1c2ccccc2cc2ccccc12)C(=O)O (stereo unspecified) = f
CCn1c(-c2cc3ccccc3cc2OC(C)=O)n[nH]c1=S = f
CCOC(=O)c1nc2ccc(C(F)(F)F)cc2nc1NCc1ccc(OC)c(OC)c1 = f
Cc1cc(C)c2c(n1)S(=O)(=O)N(CCCN1CCN(c3cccc(Cl)c3)CC1)C(C(=O)c1ccc(Br)cc1)=C2O = f
Oc1c2c(nc3cc4c(cc13)OCO4)-c1ccccc1CC2 = f
COc1cc(C2S/C(=C/c3ccccc3)C(=O)N2c2ccc([N+](=O)[O-])cc2)cc(OC)c1OC (stereo unspecified) = f
CC[C@@]1(O)C[C@H](OC2CC(N(C)C)C(O)C(C)O2)c2c(cc3c(c2O)C(=O)c2c(O)ccc(O)c2C3=O)[C@H]1C(=O)OC (stereo partly specified) = t
CCOc1cc(-c2nc3cc(F)ccc3s2)ccc1O = f
CC1=NNC(=O)C1C(CC(=O)c1c[nH]c2ccccc12)C(=O)O (stereo unspecified) = f
CC(=O)Nc1cccc(N2C(=O)/C(=C\c3cccc(Oc4ccccc4)c3)SC2c2ccccc2)c1 (stereo unspecified) = f
[O-][Cl+3]([O-])([O-])[O-].c1ccc(C[P+]2(c3ccccc3)CCCCC2)cc1 = f
COc1ccc(NCn2nc(CCCCCCCCc3nn(CNc4ccc(OC)cc4)c(=S)o3)oc2=S)cc1 = f
COc1ccc(C[C@H]2NC[C@H](OC(C)=O)[C@H]2OC(C)=O)cc1 = t
COP(=N[Si](C)(C)C)(OC)OC = f
COC1=C(C)C(=O)c2c(c(COC(N)=O)c3n2CC2C3N2C)C1=O (stereo unspecified) = t
O=C(NC(Cc1ccc(I)cc1)C(=O)O)c1ccc(Cl)cc1 (stereo unspecified) = f
COC(=O)C1(Cc2ccc3c(c2)CCC3)Cc2ccc3c(c2C1=O)CCC3 (stereo unspecified) = f
OC1(c2ccc(Cl)cc2)c2ccccc2C2=NCc3ccccc3CN21 (stereo unspecified) = f
N/N=C1/C(=N/O)CCc2nonc21 = f
CC(=O)O[C@H]1C[C@]2(C)C(CCC3O[C@@]32C)[C@@]2(CC(c3ccoc3)OC2O)[C@@H]1C (stereo partly specified) = f
O=S(=O)(/N=C(\NO)Nc1ccc(Cl)cc1)C1CC=C(c2ccon2)S1 (stereo unspecified) = f

###

# System: SN12C
# assay.details: NCI tumour cell line growth inhibition, 48 h
Activity calls are given as the source filed them. Rule as the data show it: active = GI50 up to about 1.1 µM and inactive = higher.
Labels: 1 for active, 0 for inactive

CC(=O)O/N=C/c1ncccc1CO = 0
c1ccc2c(c1)N=C(NC1CCCCC1)CCN2 = 0
COc1ccc(C(=O)C(C(=O)CCC(=O)Nc2ccc(C)c(C)c2)c2ccc(OC)cc2)cc1 (stereo unspecified) = 0
CCN1C[C@]2(C)CC[C@H](O)C34C1C(C[C@@H]32)[C@@]1(O)CC[C@H]2C[C@@H]4[C@@H]1[C@H]2O = 0
COc1ccc(/C(C)=N/NC(=O)c2ccncc2)cc1OC = 0
COC(=O)c1cc2c3c(cc(NCCN)c2[nH]1)N(C(=O)c1cc2cc(OC)c(OC)c(OC)c2[nH]1)CC3CCl (stereo unspecified) = 1

###

# Test system: MDA-MB-435
# assay.details: NCI tumour cell line growth inhibition, 48 h
The source made the active and inactive calls. Rule as the data show it: active = GI50 up to about 1.1 µM and inactive = higher.
Labels: T (active), F (inactive)

c1ccc(C(Oc2noc3ccccc23)c2ccccc2)cc1 = F
COC(=O)c1ccccc1Nc1ccccc1C(=O)OC = F
O=c1oc2ccc3ccccc3c2cc1-c1nc2ccc([N+](=O)[O-])cc2o1 = F
O=c1[nH]c2ccc(CC(=S)N3CCN(c4ccccc4)CC3)cc2o1 = F
CC[C@@]1(O)C(=O)OCc2c1cc1n(c2=O)Cc2cc3c(N)cccc3nc2-1 = T
CN1C2=Nc3n(C)c4ccccc4[n+]3CN2c2ccccc21 = F
COc1cc(/C=C2\CCC(CN(C)C)C2=O)ccc1OC(=O)c1ccccc1 (stereo not given) = F
Cc1cn(C(C)OCCN2C(=O)c3ccccc3C2=O)c(=O)[nH]c1=O (stereo not given) = F
CCOC(=O)c1ccc(Nc2nc3cc(C(F)(F)F)ccc3nc2C(=O)OCC)cc1 = F
CC(=O)OC1C[C@@H](C)C2(CC(c3ccoc3)OC2=O)C2CCC(O)C3(CO3)C12CO (stereo not given in full) = F

###

GI50 reference
# System: MDA-MB-435
# assay.details: NCI tumour cell line growth inhibition, 48 h
The source made the active and inactive calls. Cut-off read from the data, not from the text of the source: active = GI50 up to about 1.1 µM and inactive = higher. *1 amine or outer side, *2 acyl side, *3 side chain or, on linkers, in order; H or OH if unused. Where a SMILES comes first, the peptide text is derived from it. Residues, ends and D or L forms follow the SMILES beside them. Bridges are numbered along the chain shown (N, C = ends). [ ]: non-standard residue; d: D form. The star is where a group is joined. ξ: configuration not given here. *: point of attachment. ξOrn(4,5-diOH) = O=C(C(CC(O)C(O)N[*:3])N[*:1])[*:2]; ξhTyr(βξ-OH,γξ-OH) = NC(C(=O)O)C(O)C(O)c1ccc(O)cc1; ξPro(3ξ-OH,4ξ-Me) = CC1CNC(C(=O)O)C1O; X55 = CCCCC/C=C/C/C=C\CCCCCCCC(=O)*; Ethyl(2-NMe3+) = C[N+](C)(C)CC*; Hyp = O=C(O)[CH]1C[CH](O)CN1; Boc = CC(C)(C)OC(=O)*
test.readout: GI50

CCCc1[nH]nc(C(N)=O)c1/N=N/N(C)C = > 100 µM (inactive)
CC(NC(=O)C(Cc1ccc(OCC[N+](C)(C)C)cc1)NC(=O)OC(C)(C)C)C(=O)NC(Cc1ccccc1)C(=O)NCC(N)=O (stereo not drawn) (Boc-Y(Ethyl(2-NMe3+))AFG-NH2; configuration not given here) = > 100 µM (inactive)
Cc1csc2nc(-c3cc([N+](=O)[O-])c(Cl)cc3Cl)c(/C=N/N=C(N)N)n12 = 17.1 µM (inactive)
CCCCCC[C@H]1CC(=O)C2CCCC[C@@]23CC[C@H](CCl)N13.CCCCCC[C@H]1CC(=O)C2CCCC[C@@]23C[C@H](Cl)CN13 (stereo partly drawn) = 57.8 µM (inactive)
CC(=O)Nc1ccc2nncnc2c1 = > 100 µM (inactive)
c1ccc2c(c1)SCCCS2 = > 100 µM (inactive)
OCC(Cn1cncn1)(c1ccc(F)cc1F)n1cncn1 (stereo not drawn) = > 100 µM (inactive)
CCCCC/C=C/C/C=C\CCCCCCCC(=O)NC1CC(O)C(O)NC(=O)C2C(O)C(C)CN2C(=O)C(C(C)O)NC(=O)C(C(O)C(O)c2ccc(O)cc2)NC(=O)C2CC(O)CN2C(=O)C(C(C)O)NC1=O (stereo not drawn) (X55-[ξOrn(4,5-diOH)]T[Hyp][ξhTyr(βξ-OH,γξ-OH)]T[ξPro(3ξ-OH,4ξ-Me)]; lactam 1-C; configuration not given here) = > 100 µM (inactive)

Numbers sourced from ChEMBL document CHEMBL1201862.
